Target: GST-Nv-NF-kB (Cys allele) (Nematostella vectensis, UniProt E5G601 2-411)
Sequence: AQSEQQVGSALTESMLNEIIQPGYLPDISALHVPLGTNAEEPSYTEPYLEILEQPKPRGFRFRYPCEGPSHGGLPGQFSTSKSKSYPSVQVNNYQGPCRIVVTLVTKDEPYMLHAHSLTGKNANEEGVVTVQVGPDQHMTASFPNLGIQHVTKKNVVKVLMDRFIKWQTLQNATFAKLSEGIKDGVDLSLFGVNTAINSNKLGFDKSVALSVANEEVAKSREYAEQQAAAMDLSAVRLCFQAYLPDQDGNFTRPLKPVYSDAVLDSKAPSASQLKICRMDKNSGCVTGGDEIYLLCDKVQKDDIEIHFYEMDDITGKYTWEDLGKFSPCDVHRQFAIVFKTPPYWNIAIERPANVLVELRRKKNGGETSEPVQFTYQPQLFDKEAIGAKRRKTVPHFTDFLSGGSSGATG
Test: protein-binding microarray (PBM); PBM: ~300 nM protein, 6 mM HEPES pH 7.8, 80 mM KCl, 0.5 mM EDTA, 0.5 mM EGTA, 6% glycerol, 35 ng/ul poly-dIdC, 1% milk, 1 h, room temperature; Ap Aiptasia and Nv Nematostella (sea anemones) / Co Capsaspora / Aq Amphimedon (sponge) / Dm Drosophila / Hu human; RHD is the Rel homology domain; high values mean tight binding
Settings: dsDNA, one strand shown
// boundary case: binding signal equal to 4 z-score maps to Not fulfilled; strictly smaller maps to Fulfilled

CCGATTAACATCAGGGAATTGCATGATGTTAATCGGGTCTTGATTCGCTTGACGCTGCTG | Not fulfilled
CCGATTAACATCAGGGTATTTAATGATGTTAATCGGGTCTTGATTCGCTTGACGCTGCTG | Not fulfilled
CCGATTAACATCAATTTACCCACTGATGTTAATCGGGTCTTGATTCGCTTGACGCTGCTG | Fulfilled

Dear reviewer, please state whether CCGATTAACATCAGGGGGAGAGATGATGTTAATCGGGTCTTGATTCGCTTGACGCTGCTG has binding signal strictly beneath 4 z-score.
Fulfilled

Same question, CCGATTAACATCAGTACGGGAAATGATGTTAATCGGGTCTTGATTCGCTTGACGCTGCTG this time
Fulfilled

# iterate: CCGATTAACATCAAATCCCCCCTTGATGTTAATCGGGTCTTGATTCGCTTGACGCTGCTG
Not fulfilled

Follow-up entry: CCGATTAACATCAGGGGGGTGCATGATGTTAATCGGGTCTTGATTCGCTTGACGCTGCTG
Fulfilled

Param item: CCGATTAACATCAGGGGGAGGGATGATGTTAATCGGGTCTTGATTCGCTTGACGCTGCTG
Not fulfilled

Entry to check: CCGATTAACATCAGGGAAGTCCCTGATGTTAATCGGGTCTTGATTCGCTTGACGCTGCTG
Not fulfilled
